Biological target: Bcl-xL, Q07817
Sequence (Q07817 1-209): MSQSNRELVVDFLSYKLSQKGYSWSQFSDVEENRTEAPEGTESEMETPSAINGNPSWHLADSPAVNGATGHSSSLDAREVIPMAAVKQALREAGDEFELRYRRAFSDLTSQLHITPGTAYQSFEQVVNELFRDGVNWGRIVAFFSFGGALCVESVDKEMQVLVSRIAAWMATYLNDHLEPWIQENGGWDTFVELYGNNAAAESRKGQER
Assay: peptide SPOT array, c-Myc-tagged receptor at 1 uM or 100 nM, anti-c-Myc-Cy3
READOUT TYPE: SPOT signal as a fraction of Bim BH3's signal on the same receptor and array

>  <BINDER>
AELEVECATQLRRFLDKLNFRQKLLN [PMAIP1]

>  <EXPERIMENTAL VALUE>
0.2

$$$$
>  <BINDER>
QNSRDPFCKAIEEVAQDLDLRIKNII [C12orf48]

>  <EXPERIMENTAL VALUE>
0.03

$$$$
>  <BINDER>
RVSWNITGTVLASSGDDGCVRLWKAN [SEH1L]

>  <EXPERIMENTAL VALUE>
0.3

$$$$
>  <BINDER>
GDRAGGRSWCLRRVGMSAGWLLLEDG [RNF8]

>  <EXPERIMENTAL VALUE>
0.12

$$$$
>  <BINDER>
FTGNNTAVQEDKRVSEQFTATFRRKA [TUBB4Q]

>  <EXPERIMENTAL VALUE>
0.41

$$$$
>  <BINDER>
AIKWDPTGNLLASCLDDMTLKIWSMK [TBL1XR1]

>  <EXPERIMENTAL VALUE>
0.07

$$$$
>  <BINDER>
KIETTPESRYLAQILDSVSLTCSTTG [VCAM1]

>  <EXPERIMENTAL VALUE>
0.07

$$$$
